Test system: SK-MEL-2
experimentNotes: NCI tumour cell line growth inhibition, 48 h
The source made the active and inactive calls. Rule as the data show it: active = GI50 up to about 1.1 µM and inactive = higher.
Outcome codes: 1 (yes) (active), 0 (no) (inactive)

{"columns": ["molecule", "className"],
 "data": [
  ["O/N=C1/C(=C/c2ccccc2)CCCC1C(NO)c1ccccc1 (centres undefined)", "0 (no)"],
  ["COc1ccc(-c2cc(=O)c3c(OC)cccc3o2)c(OC)c1OC", "0 (no)"],
  ["O=C(CCc1ccc(O)c(O)c1)NCCc1cc(O)c(O)c(O)c1", "0 (no)"],
  ["CN(Cc1cnc2nc(N)nc(N)c2n1)c1ccc(C(=O)NCCCC(=O)O)cc1", "0 (no)"],
  ["CC1(C)Cc2c(sc3[nH]c(=S)[nH]c(=S)c23)CS1", "0 (no)"],
  ["O=C(O)Cc1c(-c2ccc([N+](=O)[O-])cc2)c(=O)oc2cc(O)ccc12", "0 (no)"],
  ["CC(=O)Oc1cc2c(=O)oc3c(OC(C)=O)c(OC(C)=O)c(OC(C)=O)c4c(=O)oc(c1OC(C)=O)c2c34", "0 (no)"],
  ["Cc1ccc(SC2C(=O)C3CC(OCc4ccccc4)C2(C)C3(C)C)cc1 (centres undefined)", "0 (no)"],
  ["CCSC1=N/C(=C\\c2ccco2)C(Nc2ccc(C)cc2)=N1", "0 (no)"],
  ["O=c1oc2ccccc2c(Nc2ccc3c(c2)S(=O)(=O)c2ccccc2O3)c1[N+](=O)[O-]", "0 (no)"],
  ["O=[N+]([O-])C(=C(N1CCOCC1)N1CCOCC1)/C(Cl)=C(\\Cl)[N+](=O)[O-]", "0 (no)"],
  ["Cc1nn(C)c2nc3ccc(Cl)cc3c(-c3ccccc3)c12", "0 (no)"],
  ["CC(C)(C)CC(C)(C)c1cc2c(O)c(c1)Cc1cc(C(C)(C)CC(C)(C)C)cc(c1O)Cc1cc(C(C)(C)CC(C)(C)C)cc(c1O)Cc1cc(C(C)(C)CC(C)(C)C)cc(c1O)Cc1cc(C(C)(C)CC(C)(C)C)cc(c1O)Cc1cc(C(C)(C)CC(C)(C)C)cc(c1O)Cc1cc(C(C)(C)CC(C)(C)C)cc(c1O)Cc1cc(C(C)(C)CC(C)(C)C)cc(c1O)C2", "0 (no)"],
  ["Cc1c(-c2ccc(O)cc2)n(CCCCCCNCCOC(=O)NCCCc2ccc(N(CCCl)CCCl)cc2)c2ccc(O)cc12", "0 (no)"],
  ["O=C(Cc1ccccc1)NN1C(=O)C(Cl)C1c1ccc(O)cc1 (centres undefined)", "0 (no)"],
  ["O=C1N(c2ccccc2)C2(c3ccccc3)CC3CCCC13S2 (centres undefined)", "0 (no)"],
  ["CC(C)[C@]12O[C@H]1[C@@H]1O[C@@]13[C@@]1(C)CCC4=C(COC4=O)[C@@H]1C[C@@H]1O[C@@]13C2=O [TRIPTONIDE]", "1 (yes)"],
  ["COC(=O)C1=C(O)c2cc(OC)c(OC)cc2C(c2ccc(OC)c(OC)c2)C1 (centres undefined)", "0 (no)"],
  ["O=C(O)CN(CCNC(=O)OCC1c2ccccc2-c2ccccc21)CCNC(=O)OCC1c2ccccc2-c2ccccc21", "0 (no)"],
  ["N#Cc1cn(-c2c3ccccc3nc3ccccc23)c(=O)[nH]c1=O", "0 (no)"],
  ["COC(=O)c1c(C#N)[nH]c(-c2ccsc2)c1C(=O)OC", "0 (no)"],
  ["O=[N+]([O-])/C(C(Cl)=C(Cl)Cl)=C(\\Nc1cccc2cccnc12)Sc1ccccc1", "0 (no)"],
  ["Cc1ccc(S(=O)(=O)NN=C2C(C)CC(C(C)(C)C)CC2C)cc1 (centres undefined)", "0 (no)"],
  ["CCCCCCCCCCCC1=C(O)C(=O)C=C(O)C1=O", "0 (no)"],
  ["C=CCOC(=O)CCCCCCCCCCCCCCCOC(=O)c1c(CCC[C@@H](C)O[Si](C)(C)C(C)(C)C)nc([O-])[n+]2c1CC[C@H]2CC1(CC/C=C\\[C@H](CC)O[Si](C(C)C)(C(C)C)C(C)C)OCCO1", "0 (no)"],
  ["CCOP(=O)(OCC)/C(C#N)=C/c1c[nH]c2ccccc12", "0 (no)"],
  ["Cc1ccccc1NC(=O)O/N=C(\\Cl)C(C)C", "0 (no)"],
  ["O=C(NC(c1ccccc1)C(O)C(=O)OCc1ccc2c(c1)C(=O)c1ccccc1C2=O)c1ccccc1 (centres undefined)", "0 (no)"],
  ["COc1cc(C2c3cc4c(cc3[C@@H](Nc3cccc(C(C)=O)c3)C3COC(=O)[C@H]23)OCO4)cc(OC)c1O (some centres undefined)", "0 (no)"],
  ["COc1cc2c3c(n(C)c(=O)c2cc1OC)-c1cc2c(cc1/C3=C\\CCCCl)OCO2", "0 (no)"],
  ["CC1(C)c2ccccc2C(=O)C12CCC(=O)CC2", "0 (no)"],
  ["Oc1c2cc(Br)cc1CCc1cc(Br)cc(c1O)CC2", "0 (no)"],
  ["O=Cc1cn(CCCCCCCCn2cc(C=O)c3ccccc32)c2ccccc12", "0 (no)"],
  ["Cc1ccc(S(=O)(=O)NC(=O)C#CCOC2CCCCO2)cc1 (centres undefined)", "0 (no)"]
]}
